Values compiled from the nanobody polyreactivity screen of Harvey et al. (2022).

assay remarks: yeast display, Sf9 membrane polyspecificity reagent, FACS + sequencing; frameworks hold sequencing errors
experimental readout: polyreactivity (PSR sort gate)

Some solved cases for reference:
QVQLVESGGGLVQAGGSLRLSCAASGSTFGYYTMGWYRQAPGKERELVAAISWSGGRTYYADSVKGRFTISRDNAKNTVYLQMNSLKPEDTAVYYCAAPRYGGWRSYQKYDYWGQGTQVTVSS    high polyreactivity
QVQLVESGGGLVQAGGSLRLSCAASGRIFGYYAMGWYIQAPGKERELVAGIDWSGGNTYYADSVKGRFTISRDNAKNTVYLQMNSLKPEDTAVYYCNTEGGRDTAWYDYWGQGTQVTVSS    low polyreactivity
QVQLVESGGGLVQAGGSLRLSCAASGGTLDYYVMAWYRQAPGKERELVAAISTNGGSTNYADSVKGRFTISRDNAKNTVYLQMNSLKPEDTAVYYCAATSDVYVFLEFDYWGQGTQVTVSS    low polyreactivity
QVQLVESGGGLVQAGGSLRLSCAASGSIFPVNAMGWYRQAPGKERELVAAISSDGTTYYADSVKGRFTISRDNAKNTVYLQMNSLKPEDTAVYYCAKDRRYYKAYDYWGQGTLVTVSS    low polyreactivity
QVQLQESGGGLVQSGGSLRLSCAASGFIFARNYMGWYRQAPGKERELVAGIGVGASTNYADSVKGRFTISRDNAKNTVYLQMNSLKPEDTAVYYCNARTGTTWQGYEYDYWGQGTQVTVSS    low polyreactivity
QVQLVESGGGLVQAGGSLRLSCAASGRTIDHYAMGWYRQAPGKERELVAAISTTGGSTYYADSVKGRFTISRDNAKNTVYLQMNSLKPEDTAVYYCAAQLGWWGSGYWGQGTQVTVSS    high polyreactivity
QVQLVESGGGLVQAGGSLRLSCAASGRTSSVYARGWSRQAPGKEREWVAAITSSGGSTYYADSVKGRFTISRDNAKNTVYLQMNSLNPEDTAVYYCAAETYPVWGVAFYYWGQGTQVTVSS    high polyreactivity
QVQLVESGGGLVQAGGSRLSCAASGLIFIWYTMGWYRQAPGKERELVAAIDSSGGNTYYADSVKGRFTISRDNAKNPVYLQMNSLKPAETAVYYCATDVGHGAGNLMGYWGQGTQVTVSS    low polyreactivity
QVQLVESGGGLVQAGGSLRLICAASGFIFRNYARGWYRQAPGKERELVAAITRSGTSTYYADSVKGRFTISRDNAKNTVYLQMNSLKPEDTAVYYCNAGWGLRLSWLGNYWGQGTQVTVSS    high polyreactivity
QVQLVESGGGLVQAGGSLRLSCAASGSIFGWYAMGWYRQAPGKERELVAAISGSGGSTYYADSVKGRFTISRDTAKNTVYLQMNSLKPEDTAVYYCNAYRRVGTSEYWGQGTQVTVSS    high polyreactivity

Query block: Reported polyreactivity (PSR sort gate), sequence QVQLVESGGGLVQAGGSLRLSCAASGYILRYYGLGWYRQAPGKERELVAAITRGVSTNYADSVKGRFSISRDNAKNTVYLKMNSLKPEDTAVYYCAAKYYPYSSLSKPWTMDYWGQGTQVTVSS : ____
Result block: low polyreactivity
